tgt: BTK (Homo sapiens, UniProt Q06187)
Construct: endogenous in cells; host or cells: TMD8 cells
Sequence (Q06187 whole entry): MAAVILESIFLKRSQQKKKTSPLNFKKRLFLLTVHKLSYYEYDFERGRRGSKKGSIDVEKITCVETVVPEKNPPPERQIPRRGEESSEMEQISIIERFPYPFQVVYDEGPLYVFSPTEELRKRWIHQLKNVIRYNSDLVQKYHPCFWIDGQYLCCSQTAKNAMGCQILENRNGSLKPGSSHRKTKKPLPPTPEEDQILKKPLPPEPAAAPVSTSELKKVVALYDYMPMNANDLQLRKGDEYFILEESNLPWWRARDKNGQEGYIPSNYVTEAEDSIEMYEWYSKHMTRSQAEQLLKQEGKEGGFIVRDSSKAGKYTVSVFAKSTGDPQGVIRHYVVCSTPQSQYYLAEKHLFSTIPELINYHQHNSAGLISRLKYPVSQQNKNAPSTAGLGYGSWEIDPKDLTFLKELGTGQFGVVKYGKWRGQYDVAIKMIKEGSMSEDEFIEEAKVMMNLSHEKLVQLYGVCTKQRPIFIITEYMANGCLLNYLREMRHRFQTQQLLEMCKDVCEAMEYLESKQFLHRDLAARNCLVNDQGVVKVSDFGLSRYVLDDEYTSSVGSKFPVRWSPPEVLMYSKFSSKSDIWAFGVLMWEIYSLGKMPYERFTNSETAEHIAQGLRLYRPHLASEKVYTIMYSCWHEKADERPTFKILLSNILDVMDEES
assay_details: Cellular BTK HTRF assay (BTK degradation) in TMD8 cells
Format: cell-based
reported_conditions: four hours incubation, Total-BTK HTRF relative to DMSO-treated cells
endpoint_label: DC50

# compound, value_reported
data = [
    ("CN1CCN([C@@H]2CCCN(c3cnc(C(N)=O)c(Nc4ccc(C5CCN(C[C@H]6CCN(c7ccc8c(c7)CN(C7CCC(=O)NC7=O)C8=O)C6)CC5)cc4)n3)C2)C1=O (stereo partly drawn)", "< 5 nM"),
    ("CN1CCN([C@@H]2CCCN(c3cnc(C(N)=O)c(Nc4ccc(C5CCN(CCC6CCN(c7ccc8c(c7)C(=O)N(C7CCC(=O)NC7=O)C8=O)CC6)CC5)cc4)n3)C2)C1=O (stereo partly drawn)", "< 5 nM"),
    ("CN1CCN([C@@H]2CCCN(c3cnc(C(N)=O)c(Nc4ccc(C5CCN(C[C@H]6CCCN(c7ccc8c(c7)C(=O)N(C7CCC(=O)NC7=O)C8=O)C6)CC5)cc4)n3)C2)C1=O (stereo partly drawn)", "< 5 nM"),
    ("CN1CCN([C@@H]2CCCN(c3cnc(C(N)=O)c(Nc4ccc(C(=O)NCCCCNc5cccc6c5C(=O)N(C5CCC(=O)NC5=O)C6=O)cc4)n3)C2)C1=O (stereo partly drawn)", "5 to 15 nM"),
    ("CN1CCN([C@@H]2CCCN(c3cnc(C(N)=O)c(Nc4ccc(N5CCN(Cc6ccc7c(c6)C(=O)N(C6CCC(=O)NC6=O)C7=O)CC5)cc4)n3)C2)C1=O (stereo partly drawn)", "> 15 nM"),
    ("CN1CCN([C@@H]2CCCN(c3cnc(C(N)=O)c(Nc4ccc(C5CCN(C[C@@H]6CCCN(c7ccc8c(c7)C(=O)N(C7CCC(=O)NC7=O)C8=O)C6)CC5)cc4)n3)C2)C1=O (stereo partly drawn)", "< 5 nM"),
    ("CN1CCN([C@H]2CCCN(c3cnc(C(N)=O)c(Nc4ccc(N5CC[C@H]6CCN(c7ccc8c(c7)C(=O)N(N7CCC(=O)NC7=O)C8=O)C[C@H]6C5)cc4)n3)C2)C1=O", "5 to 15 nM"),
    ("CN1CCN([C@@H]2CCCN(c3cnc(C(N)=O)c(Nc4ccc(N5CCN(CCCc6cccc7c6CN(C6CCC(=O)NC6=O)C7=O)CC5)cc4)n3)C2)C1=O (stereo partly drawn)", "< 5 nM"),
    ("CN1CCN([C@@H]2CCCN(c3cnc(C(N)=O)c(Nc4ccc(C5CCN(C6CN(c7ccc8c(c7)C(=O)N(C7CCC(=O)NC7=O)C8=O)C6)CC5)cc4)n3)C2)C1=O (stereo partly drawn)", "< 5 nM"),
    ("CN1CCN([C@@H]2CCCN(c3cnc(C(N)=O)c(Nc4ccc(C5CCN(CC6CCN(c7ccc8c(=O)n(C9CCC(=O)NC9=O)ccc8c7)CC6)CC5)cc4)n3)C2)C1=O (stereo partly drawn)", "< 5 nM"),
    ("NC(=O)c1ncc(N2CCC2)nc1Nc1ccc(C2CCN(C[C@H]3CCN(c4ccc5c(c4)C(=O)N(C4CCC(=O)NC4=O)C5=O)C3)CC2)cc1 (stereo partly drawn)", "< 5 nM"),
    ("CN1CCN([C@@H]2CCCN(c3cnc(C(N)=O)c(Nc4ccc(C5CCN(CC6CCN(c7ccc(OC8CCC(=O)NC8=O)cn7)CC6)CC5)cc4)n3)C2)C1=O (stereo partly drawn) [Compound 166]", "< 5 nM"),
    ("NC(=O)c1ncc(N2CCC[C@@H](CO)C2)nc1Nc1ccc(C2CCN(CC3CCN(c4ccc5c(=O)n(C6CCC(=O)NC6=O)ccc5c4)CC3)CC2)cc1 (stereo partly drawn)", "< 5 nM"),
    ("CN1CCN([C@H]2CCCN(c3cnc(C(N)=O)c(Nc4ccc(C(=O)N5CCN(Cc6ccc7c(c6)C(=O)N(C6CCC(=O)NC6=O)C7=O)CC5)cc4)n3)C2)C1=O (stereo partly drawn)", "5 to 15 nM"),
    ("CN1CCN([C@@H]2CCCN(c3cnc(C(N)=O)c(Nc4ccc(C5(C)CCN(CCCc6cccc7c6CN(C6CCC(=O)NC6=O)C7=O)CC5)cc4)n3)C2)C1=O (stereo partly drawn)", "5 to 15 nM"),
]
